Protocol: melting temperature; fluorescence melt of hairpins on a sequencing array, two-state fit, raised by 9.35 °C to match UV melts
Experimental context: sodium 0.088 M
Endpoint label: Tm (°C)
One number for each entry, in °C.

INSERT INTO results (entry_sequence, assay_value) VALUES
  ('TCAATGAAAATTGA (((((....)))))', 25);

Kindly give each listed record's Tm.
1. GGTTCTGGAAACAGAGCC ((.((((....)))).))
2. GGCAGAGGAAACCCTGCC (((((.(....).)))))
3. GATCCAGAGATGGATC ((((((....))))))
4. GATCGACCTATCGATC ((((((....))))))
5. GCAGCAGGAAACTACTGC ((((.((....)).))))

[50.6, 53.3, 52.3, 51, 45.5]

###

Would you kindly list Tm for each of these sequences?
Protocol: melting temperature; fluorescence melt of hairpins on a sequencing array, two-state fit, raised by 9.35 °C to match UV melts
Experimental context: sodium 0.088 M
Give bare numbers, in °C.

Dear colleague, could you send me Tm for each of the items below? Thanks.
1. GGTGTGTCGAAAGACACC (((..(((....))))))
2. GATCTTACTGAAGATC ((((((....))))))
3. CGTTCGGAAACGATTACG ((((((....)))..)))
4. GATCGACCAGTCGATC ((((((....))))))

1: 47.8; 2: 42.2; 3: 35.7; 4: 57.4

Provide each entry's Tm from the list below.
1. CGGGTCGGAAACGAACCG (((.(((....))).)))
2. GTTCAGGGAAACCCGAAC ((((.((....)).))))

1. 59.6
2. 42.3

###

Protocol: folding enthalpy; higher = less favourable; fluorescence melt of hairpins on a sequencing array, two-state fit
Experimental context: sodium 0.088 M
Rule: folding enthalpy of -30 kcal/mol or more gives TRUE; anything lower gives FALSE.

Example entries and their recorded answers appear below.
INSERT INTO measurements (entry_sequence, assigned_class) VALUES
  ('GAAAGGCGAAAGCCATTC (((.(((....))).)))', 'TRUE'),
  ('GGACTTGAAAAAGTCC ((((((....))))))', 'FALSE'),
  ('GATCCTGTCCAGGATC ((((((....))))))', 'FALSE'),
  ('GGACGTGGAAACACGCCC ((.((((....)))).))', 'FALSE'),
  ('GGAACTCGAAAGAGATCC (((.(((....))).)))', 'FALSE');

State whether the measured folding enthalpy reaches -30 kcal/mol, counting equality as reaching it, for GCGATCGGAAACGATTGC ((.((((....)))).))
FALSE

###

Protocol: folding enthalpy; higher = less favourable; fluorescence melt of hairpins on a sequencing array, two-state fit
Experimental context: sodium 0.088 M
We use -30 kcal/mol as the dividing line for folding enthalpy: on or above the line is fulfilled, below is not fulfilled.

Use these answered entries as a reference point.
INSERT INTO measurements (entry_sequence, assigned_class) VALUES
  ('GCGTAGCGAAAGCTCCGC (((.(((....))).)))', 'not fulfilled'),
  ('GTTGACGCGAAAGCGAAC (((..(((....))))))', 'fulfilled'),
  ('GTCCGCGAAAGCGGGGAC ((((((....)))..)))', 'fulfilled');

Does the sequence GATCGTTACAACGATC ((((((....)))))) have recorded folding enthalpy that is -30 kcal/mol or more?
not fulfilled

Determine whether measured folding enthalpy meets or exceeds -30 kcal/mol for GCGCTCGAAAGAGCCCGC ((((((....)))..)))
fulfilled

Check if folding enthalpy >= -30 kcal/mol (inclusive). Item: GTCCCAGGAAACTGGAAC ((.((((....)))).))
fulfilled

Given GTGCACCGAAAGGTACAC (((.(((....))).))) , state whether its folding enthalpy is at least -30 kcal/mol.
not fulfilled

# bool: folding enthalpy of GCCACACCGAAAGGTGGC (((..(((....)))))) >= -30 kcal/mol
fulfilled

Form field: folding enthalpy at least -30 kcal/mol? Entry: GATCGAATCGTCGATC ((((((....))))))
not fulfilled

Dear colleague, could you confirm whether GAGTAGCGAAAGCTCTC (((.(((....)))))) has folding enthalpy at or above -30 kcal/mol?
fulfilled

Please indicate if the recorded folding enthalpy for GCGTGAGGAAACTCATGC ((.((((....)))).)) meets or exceeds -30 kcal/mol.
not fulfilled

Is folding enthalpy at least -30 kcal/mol? Consider GGGAGCGAAAGCTCACCC ((((((....)))..)))
fulfilled

I'd appreciate it if you could say whether GTGGTCGGAAACGATCAC (((.(((....))).))) has folding enthalpy at least equal to -30 kcal/mol.
not fulfilled

Check the entry GGTGACGAAAGTCATACC ((((((....)))..))) : does folding enthalpy equal or exceed -30 kcal/mol?
fulfilled

###

Protocol: folding enthalpy; higher = less favourable; fluorescence melt of hairpins on a sequencing array, two-state fit
Experimental context: sodium 0.088 M
Endpoint label: folding enthalpy (kcal/mol)
Answers are plain numbers, in kcal/mol.

Record excerpt, results attached:
INSERT INTO measurements (entry_sequence, unit_text, assay_value) VALUES
  ('GTAGCACGAAAGTGATAC (((.(((....))).)))', 'kcal/mol', -39),
  ('GAGTATGAAAATACTC ((((((....))))))', 'kcal/mol', -36.5);

For each listed entry, give its folding enthalpy.
1. GATCAATCTTTGATC ((((((...))))))
2. GATCGTCGAAACGATC ((((((....))))))

1. -28.2
2. -38.3

Your task in this section: give folding enthalpy for each listed record.
1. GGCGTCGGAAACAACGCC (((((.(....).)))))
2. GATCAGCGTGCTGATC ((((((....))))))

-40.6
-37.1

###

Protocol: folding enthalpy; higher = less favourable; fluorescence melt of hairpins on a sequencing array, two-state fit
Experimental context: sodium 0.088 M
Endpoint label: folding enthalpy (kcal/mol)
One number for each entry, in kcal/mol.

The following sequences have reported results that may help.
INSERT INTO measurements (entry_sequence, unit_text, assay_value) VALUES
  ('GCCACCGAAAGGTCGGGC ((((((....)))..)))', 'kcal/mol', -25.6),
  ('GATCGGGTACCGATC ((((((...))))))', 'kcal/mol', -44.7),
  ('GATCGTATTAACGATC ((((((....))))))', 'kcal/mol', -37.1),
  ('GGAAGAGGAAACTCCTCC (((.(((....))).)))', 'kcal/mol', -13.9);

Give measured folding enthalpy for every item shown.
1. GTTGTGGGAAACTACGAC ((.((.(....).)).))
2. GCACCGCGAAAGCAATGC (((..((....))..)))

-14.3
-8.2

###

Protocol: melting temperature; fluorescence melt of hairpins on a sequencing array, two-state fit, raised by 9.35 °C to match UV melts
Experimental context: sodium 0.088 M
Checkbox rule: Tm lower than 50 °C = label 1; Tm not lower than 50 °C = label 0.

// below: answered sequences
INSERT INTO results (entry_sequence, assigned_class) VALUES
  ('GATTTCGGAAACGAAATC (((((((....)))))))', 'label 0'),
  ('GTCGCGACGAAAGTCGAC (((..(((....))))))', 'label 1'),
  ('GATCATTTATATGATC ((((((....))))))', 'label 1');

Threshold test, Tm < 50 °C: GCTTTCGAAAGAATAGC ((((((....))).)))
label 1

Dear colleague, could you confirm whether Tm of GATCACACCGTGATC ((((((...)))))) falls below 50 °C? Thanks.
label 0

Quick check: Tm of GCATGCGGAAACGCACGC ((.((((....)))).)) under 50 °C?
label 0

# strict comparison: is reported Tm < 50 °C? input = GTCGACGAAAGTCGTGAC ((((((....)))..)))
label 1

Does this sequence meet the criterion Tm < 50 °C? GTACACCGAAAGGTCTAC (((.(((....))).)))
label 1

Does this sequence meet the criterion Tm < 50 °C? GACATGACGAAAGTCGTC (((..(((....))))))
label 1

Hello, I'm reviewing records and need to know if Tm of CCACGGAAACGTGG (((((....))))) is below 50 °C. Could you check?
label 0

###

Protocol: folding enthalpy; higher = less favourable; fluorescence melt of hairpins on a sequencing array, two-state fit
Experimental context: sodium 0.088 M
Label scheme for folding enthalpy: bottom range: < -30 kcal/mol; center range: ≥ -30 kcal/mol and < -20 kcal/mol; top range: ≥ -20 kcal/mol

INSERT INTO results (entry_sequence, assigned_class) VALUES
  ('CGGCCGGAAACGGGTCCG ((((((....)))..)))', 'top range'),
  ('GCCTCGCGAAAGCGCTGC ((..(((....)))..))', 'top range'),
  ('GGTGGGGAAACCCACC ((((((....))))))', 'bottom range'),
  ('GCACGGCGAAAGCCTCGC ((..(((....)))..))', 'top range'),
  ('GAGGACCGAAAGGTGCTC (((.(((....))).)))', 'bottom range'),
  ('GGACCACGAAAGTGTCC (((.(((....))))))', 'center range');

Category lookup for the sequence GAGGCCGAAAGGCCCCTC ((((((....)))..)))
top range

For the record GACGACGAAAGTCAAGTC ((((((....)))..))) , report the class its folding enthalpy corresponds to.
center range

The entry to classify is GCCTTACGAAAGTAGGGC (((.(((....))).))) ; which class holds it?
bottom range

Pick a category. Item: GTCATATCGAAAGATGAC (((..(((....))))))
center range

Class label required: GTCGGACGAAAGTCAGAC (((.(((....))).)))
bottom range

Please indicate the class for GTTGGAGCGAAAGCTAAC (((..(((....)))))) based on its folding enthalpy.
center range

Input GTTTTAACGAAAGTTAAC (((..(((....)))))) ; output its category
top range

Band of GATCCCATCAGGGATC ((((((....)))))) ?
bottom range

Place this sequence in its band: GCAGCTCCGAAAGGATGC (((..(((....))))))
top range

Could you place GATCCACATTGGATC ((((((...)))))) in its proper category? Many thanks.
center range

Looking at GTAGAAGGAAACTTCTAC (((((((....))))))) , which class would you pick?
bottom range

Where do these numbers come from? They come from the array DNA melting data of Ke et al. (doi:10.1101/2024.01.08.574731).
